Attribution: ChEMBL document CHEMBL5584322

Listed here are compounds together with their documented pIC50.
Target: Replicase polyprotein 1ab (Severe acute respiratory syndrome coronavirus 2)
pIC50: −log10 of the molar value.
PARAMETER MEASURED: pIC50

- SMILES DATA: "CCCCCCCOc1ccc(C(=O)Oc2cncc(Cl)c2)cc1"
  READOUT QUALIFIER: "<"
  RESULT VALUE: 6.00
- SMILES DATA: "COc1ccc(C(=O)Oc2cncc(Br)c2)cc1"
  READOUT QUALIFIER: "="
  RESULT VALUE: 7.02
- SMILES DATA: "COc1ccc(C(=O)Oc2cncc(Cl)c2)cc1"
  READOUT QUALIFIER: "="
  RESULT VALUE: 6.79
- SMILES DATA: "O=C(Oc1cncc(Cl)c1)c1ccc(I)cc1F"
  READOUT QUALIFIER: "="
  RESULT VALUE: 7.83
- SMILES DATA: "O=C(Oc1cncc(Cl)c1)c1ccc(-c2cccnc2)cc1"
  READOUT QUALIFIER: "="
  RESULT VALUE: 6.86
- SMILES DATA: "COc1cccc(C(=O)Oc2cncc(Br)c2)c1OC"
  READOUT QUALIFIER: "="
  RESULT VALUE: 7.11
